// data source = PubChem BioAssay (NCI)

- experiment: NCI Yeast Anticancer Drug Screen. Data for the mlh1 rad18 strain (AID 175)
- condition.details: S. cerevisiae mlh1 rad18 strain growth inhibition; at 50.0 µM; stronger effect = higher value
Compounds without any hit were thinned out: in the full panel of roughly 79,000, 15% have a hit.
The reader will find reported growth inhibition values listed item by item below.

compound: N#CCC(=O)Nc1ccccc1
growth inhibition, %: 26.2
//
compound: CC(=O)C1SCC[S+]1C (stereo not drawn)
growth inhibition, %: -10.8
//
compound: COc1cccc2c1C(=N)c1c(O)c3c(c(O)c1C2=O)C[C@@](O)(C(=O)CO)C[C@@H]3OC1CC(N)C(O)C(C)O1 (stereo partly drawn)
growth inhibition, %: -13.9
//
compound: CCCCNC(=O)Oc1cccc2ccccc12
growth inhibition, %: -6.4
//
compound: O=[N+]([O-])c1cn(CCNc2c3ccccc3nc3ccccc23)cn1
growth inhibition, %: 16.8
//
compound: CC1(C)C(=O)C(C)(C)C(=O)C(C)(C)C1=O
growth inhibition, %: -0.3
//
compound: CCN(CC)CCNc1ccc2ncn3c4c(OC)ccc(OC)c4c(=O)c1c23
growth inhibition, %: 62.1
//
compound: OCC1COc2ccc(Cl)cc2O1 (stereo not drawn) (tested in a mixture with another compound)
growth inhibition, %: 4.8
//
compound: CC(=O)Oc1cccc(CN2CCc3ccccc3C2)c1
growth inhibition, %: -24.1
//
compound: CC(C)C(O)C(C)(C)CO (stereo not drawn)
growth inhibition, %: 32.6
//
compound: Cc1cc(C(C)(C)CC(=O)O)cc(C)c1C
growth inhibition, %: 56.3
//
compound: NNc1cc(S(=O)(=O)O)cc(C(=O)O)c1O
growth inhibition, %: 39.9
//
compound: CCN(CC)c1ccc(Br)cc1
growth inhibition, %: 33.9

====

- experiment: NCI Yeast Anticancer Drug Screen. Data for the bub3 strain (AID 167)
- condition.details: S. cerevisiae bub3 mutant strain, at 50.0 µM, stronger effect = higher value
This is part of a sample that, as a whole, favours compounds with a hit. Of some 79,000 tested, about 15% had one in any assay.

compound: CCCCC[N+](CCCCC)(CCCCC)CCCCC
output.unit: %
growth inhibition: 14
--
compound: O=C1C[C@@H]2CCCC[C@@H]2C12SCCS2
output.unit: %
growth inhibition: -9.45
--
compound: Brc1cccc(-c2nnc(-c3cccc4ccccc34)o2)c1
output.unit: %
growth inhibition: 6.7
--
compound: COc1ccc(C2=CSC3=NC(C)(C)CC(C)=NN23)cc1
output.unit: %
growth inhibition: 9.25
--
compound: Cc1ccccc1NC(=O)NN
output.unit: %
growth inhibition: -16.6
--
compound: Cc1cc2nc3c(=O)[nH]c(=O)nc-3n(CCN(CCO)CCO)c2cc1Cl
output.unit: %
growth inhibition: 1.55
--
compound: C=C(C)Cc1c(C)c(Cl)cc(Cl)c1OC(=O)Nc1ccccc1
output.unit: %
growth inhibition: 29.9
--
compound: COc1ccc(N)nn1
output.unit: %
growth inhibition: 4.75
--
compound: O=C(NCCCCCCNC(=O)Nc1cccc(C(F)(F)F)c1)Nc1cccc(C(F)(F)F)c1
output.unit: %
growth inhibition: 2.4
--
compound: O=c1c(SCc2ccc(Cl)c(Cl)c2)c(SCc2ccc(Cl)c(Cl)c2)cnn1-c1ccccc1
output.unit: %
growth inhibition: -13.4
--
compound: O=C(NNc1ccccc1)NNc1ccccc1
output.unit: %
growth inhibition: 20.8
--
compound: OC1c2ccccc2OC2(N3CCCC3)CCCCC12 (configuration not stated)
output.unit: %
growth inhibition: -26.4

====

- experiment: NCI Yeast Anticancer Drug Screen. Data for the cln2 rad14 strain (AID 165);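 further: 0% = growth equal to vehicle treated cultures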
- condition.details: S. cerevisiae cln2 rad14 strain, at 50.0 µM
Compounds without any hit were thinned out: in the full panel of roughly 79,000, 15% have a hit. Calls of active or inactive are those of the source. Rule as the data show it: active = growth inhibition above about 70%; inactive = the rest.
Labels: true (1) = active, false (0) = inactive

compound: O=C(Nc1nnc(C(F)(F)F)s1)c1c(F)cccc1F
category: false (0)

compound: Cc1cn(CC(O)c2cc3ccccc3[nH]2)c(=O)[nH]c1=O (stereo not drawn)
category: false (0)

compound: CSc1nc(SC)c(Nc2cccc(C)c2)c(SC)n1
category: false (0)

compound: CCOC(=O)C(C)CC(C)C(=O)OCC (stereo not drawn)
category: false (0)

compound: O=C(O)c1cc2cc(Br)ccc2c(Br)c1O
category: false (0)

compound: CC(C)(C)c1ccc(Sc2cccc3c2C(=O)c2c(Cl)cccc2C3=O)cc1
category: false (0)

compound: C#CCNCCCn1c(=O)nc2n(-c3ccccc3)c3ccccc3nc-2c1=O
category: false (0)

compound: NC(=O)CO
category: false (0)

compound: C=C(Cl)COc1ccc(C(=O)c2ccccc2)cc1
category: false (0)

compound: CCOc1ccc(/C=N/NC(=O)CCCCCCCCC(=O)N/N=C/c2ccc(OCC)c(OC)c2)cc1OC
category: false (0)

compound: CC(C)(C)OC(=O)N(CCNS(=O)(=O)c1cccc2cnccc12)CCC(=O)ON1C(=O)CCC1=O
category: false (0)

compound: COc1cc(C(NC(N)=O)c2cc3c(cc2O)OCO3)cc(OC)c1O (stereo not drawn)
category: false (0)

compound: Cc1cc(C)c(NC(=O)Nc2ccc(C(Cl)(Cl)Cl)cc2)c(C)c1
category: false (0)

compound: CC(C)C(Br)CCC1=CCC(Br)(Br)C1 (stereo not drawn)
category: true (1)

compound: CN1CCCC(NC(c2ccccc2)c2ccccc2)C1 (stereo not drawn)
category: false (0)

compound: COC1/C=C\OC2(C)Oc3c(C)c(O)c4c(c3C2=O)C(=O)C(Br)=C(NC(=O)/C(C)=C\C=C/C(C)C(O)C(C)C(O)C(C)C(OC(C)=O)C1C)C4=O (stereo not drawn)
category: false (0)

compound: O=C1CC(=O)c2cccc3cccc1c23
category: false (0)

compound: O=C(Nc1ccc(Cl)cc1[N+](=O)[O-])N1CCN(c2ccccc2)CC1
category: false (0)

compound: C/C(=N/Nc1ccc([N+](=O)[O-])cc1[N+](=O)[O-])C(CC(C(=O)NCc1ccccc1)/C(C)=N\Nc1ccc([N+](=O)[O-])cc1[N+](=O)[O-])C(=O)NCc1ccccc1 (stereo not drawn)
category: false (0)

compound: COc1cccc2c1C(c1ccc3ccccc3c1)OC2=O (stereo not drawn)
category: false (0)

compound: CCCC1(c2ccccc2)OCC(CO)O1 (stereo not drawn)
category: false (0)

compound: CN(C)CC(CN(C)C)C(=O)C(C)(C)C
category: false (0)

compound: Cc1cc[n+](C)c(-c2ccccc2)c1
category: false (0)

compound: S=C1SCN(C(c2ccccc2)c2ccccc2)CN1C(c1ccccc1)c1ccccc1
category: false (0)

compound: BrCC1OCC2(CO1)COC(CBr)OC2 (stereo not drawn)
category: false (0)

compound: COCCOCCOCCC(=O)NC1CC2CCC1(C)C2(C)C (stereo not drawn)
category: false (0)

compound: COC(=O)C1CC=CCC1 (stereo not drawn)
category: false (0)

compound: Nc1cc(C(=O)O)c(O)c(Cl)c1O
category: false (0)

compound: O=C(O)CC1CCCCCC1
category: false (0)

compound: O=C(O)C(=O)Cc1c[nH]c2ccccc12
category: false (0)

compound: CN1C(=O)c2ccccc2Cc2c(Cl)ncnc21
category: false (0)

compound: C[N+]1(C)C2C=CCC1CSC2 (stereo not drawn)
category: false (0)

compound: CC(SC(C)C(=O)N/N=C/C=C\c1ccccc1)C(=O)N/N=C\C=C\c1ccccc1 (stereo not drawn)
category: false (0)

compound: COC(=O)CCNc1c(OC)ccc2ccccc12
category: false (0)

compound: CCOC(=O)c1ccc(NCC2CNc3ccccc3N2)cc1 (stereo not drawn)
category: false (0)

compound: O=C1CSC(=S)N1Nc1ccccc1
category: false (0)

compound: CCCC1C(C#N)(C#N)C(C#N)=C(N)C1(C)C(C)=O (stereo not drawn)
category: false (0)

compound: C/C1=C/C(C)CC(C)OC(=O)C(C)NC(=O)C(Cc2ccc(O)c(I)c2)N(C)C(=O)C(C)NC(=O)C(C)C1 (stereo not drawn)
category: true (1)

compound: CN1C(=O)CC(c2ccc(Cl)cc2)C1=O (stereo not drawn)
category: false (0)

compound: Cc1ccc(NC(=O)/C=C2\CONC(c3ccccc3)=N2)cc1
category: false (0)

compound: COc1cc2c[n+](C)c3c(c2cc1OC)Cc1cc2c(cc1-3)OCO2
category: false (0)

compound: c1cnc(NC(Nc2ncccn2)c2ccco2)nc1
category: false (0)

compound: Cc1no[n+]([O-])c1C(=O)NN
category: false (0)

compound: COc1cc2c(cc1O)CN1Cc3cc(O)c(OC)cc3C2C1
category: false (0)

compound: O=C(Nc1c(O)[nH][nH]c1=O)c1ccccc1
category: false (0)

compound: COC(=O)c1cc(Cl)ccc1Br
category: false (0)

compound: CC(C)(C)OC(=O)CC(c1ccccc1)c1ccccc1
category: false (0)

compound: COc1cc(C2C(Cl)C(=O)N2n2cnc3ccccc3c2=O)ccc1O (stereo not drawn)
category: false (0)
